Where do the numbers come from? From ChEMBL document CHEMBL1201862.

- Test system: HOP-92
- assay-comment: NCI tumour cell line growth inhibition, 48 h
The source made the active and inactive calls. No stated cut-off is given here; in the data, active = GI50 up to about 1.1 µM and inactive = higher.

{"compound": "CC[C@H](C)c1occ2c(O)c(C(=O)O)c(=O)cc-2c1C", "GI50": "21.8 µM (inactive)"}
{"compound": "COc1ccc2c(c1OC)C[C@@H]1c3c(cc4c(c3-2)OCO4)CCN1C", "GI50": "12.3 µM (inactive)"}
{"compound": "CN(C)c1ncnc2c1ncn2C1C=CC(COS(N)(=O)=O)C1 (centres undefined)", "GI50": "> 100 µM (inactive)"}
{"compound": "C=CCNC1=C2C[C@@H](C)C[C@@H](OC)[C@@H](OC(=O)CCCN)[C@H](C)/C=C(\\C)[C@@H](OC(N)=O)[C@H](OC)/C=C\\C=C(/C)C(=O)NC(=CC1=O)C2=O", "GI50": "14.7 µM (inactive)"}
{"compound": "Cn1cnc([N+](=O)[O-])c1Sc1nccn1-c1ccccc1", "GI50": "22.5 µM (inactive)"}
{"compound": "COc1cc(S(=O)(=O)Nc2ccc(-c3csc(N4C(=O)C(C)SC4c4cccs4)n3)cc2)ccc1Cl (centres undefined)", "GI50": "20.1 µM (inactive)"}
{"compound": "CCN(CC)CCC(=O)c1ccc(Oc2ccccc2)cc1", "GI50": "15.8 µM (inactive)"}
{"compound": "Cc1cc2c3c(coc3c1-c1c(C)cc3c4c(coc14)C(=O)C(O)=C3C(C)C)C(=O)C(O)=C2C(C)C", "GI50": "2.62 µM (inactive)"}
{"compound": "COC(=O)c1ccc2c(c1)sc1nc(-c3ccc(OC)cc3)cn12", "GI50": "24.7 µM (inactive)"}

* * *

- Tested on: A549
- assay-comment: NCI tumour cell line growth inhibition, 48 h
The source made the active and inactive calls. No stated cut-off is given here; in the data, active = GI50 up to about 1.1 µM and inactive = higher. Where a SMILES comes first, the peptide text is derived from it. The star is where a group is joined. Boc = CC(C)(C)OC(=O)*
experimental-readout: GI50

{"molecule": "Cn1c(=O)nc2n(-c3ccc(Cl)cc3)c3ccc(Cl)cc3nc-2c1=O", "observed": "5.75 µM (inactive)"}
{"molecule": "CCOC(=O)/C(C#N)=C/N(CC)/N=C/c1ccccc1", "observed": "> 100 µM (inactive)"}
{"molecule": "COc1ccc(OC)c([N+](=O)[O-])c1-c1nc2sc(Cl)cn2c1/C=N/N=C(N)N", "observed": "23.2 µM (inactive)"}
{"molecule": "CCCCCCCCCCNC(=S)OCCCC", "observed": "26 µM (inactive)"}
{"molecule": "O=C1N[C@H]2c3c(Cl)sc(Cl)c3C(=O)[C@H]2O1", "observed": "36.8 µM (inactive)"}
{"molecule": "O=C(Nc1ccccc1)c1cc(S(=O)(=O)N2CCNC2=O)c(S)cc1Cl", "observed": "> 100 µM (inactive)"}
{"molecule": "CCSC(SCC)=C1C(=O)N(c2ccccc2)N=C1C", "observed": "18.1 µM (inactive)"}
{"molecule": "FC(F)(F)c1ccc(/C=N/C23CC4CC(CC(C4)C2)C3)cc1", "observed": "> 100 µM (inactive)"}
{"molecule": "CC(C)(C)OC(=O)NC(Cc1ccccc1)C(=O)N1CCCC1C(N)=O (stereo not drawn) (Boc-Phe-Pro-NH2; configuration not given here)", "observed": "> 100 µM (inactive)"}
{"molecule": "CCC1c2[nH]c3ccccc3c2C[C@H]2C(=O)NC(Cc3c[nH]c4ccccc34)C(=O)N12 (stereo not given in full)", "observed": "28 µM (inactive)"}

* * *

Form field: GI50 (one value per entry).
- Test system: NCI-H460
- assay-comment: NCI tumour cell line growth inhibition, 48 h
Active and inactive are the calls of the source. Rule as the data show it: active = GI50 up to about 1.1 µM and inactive = higher.
experimental-readout: GI50

{"compound": "CC1=C(C(=O)Nc2cc(F)c(F)cc2F)C(c2cccc([N+](=O)[O-])c2)C(C(=O)Nc2ccccc2C(F)(F)F)=C(C)N1 (stereo not given)", "observed": "18.5 µM (inactive)"}
{"compound": "COC(=O)C1(C(=O)OC)N=C(C)OC1C(C)C (stereo not given)", "observed": "> 100 µM (inactive)"}
{"compound": "C=C1CCC2CC1C(C(=O)c1c[nH]c3ccccc13)=NC2(C)C (stereo not given)", "observed": "> 100 µM (inactive)"}
{"compound": "CC(C)(C)C1=CC(=C2C=Cc3cc(O)ccc3O2)C=C(C(C)(C)C)C1=O", "observed": "1.34 µM (inactive)"}
{"compound": "Cc1nn(C(=O)c2ccncc2)c2c1C(c1ccc([N+](=O)[O-])cc1)SC(=N)N2 (stereo not given)", "observed": "> 100 µM (inactive)"}

* * *

- Test system: IGROV-1
- assay-comment: NCI tumour cell line growth inhibition, 48 h
Activity calls are given as the source filed them. No stated cut-off is given here; in the data, active = GI50 up to about 1.1 µM and inactive = higher. Where a SMILES comes first, the peptide text is derived from it. [ ]: non-standard residue; d: D form. The star is where a group is joined. ξ: configuration not given here. ξD = NC(CC(=O)O)C(=O)O; Boc = CC(C)(C)OC(=O)*; Aib = CC(C)(N)C(=O)O; OtBu = CC(C)(C)O*
experimental-readout: GI50

{"compound": "COc1ccc(/C=C/C(=O)c2ccc(OC(=O)/C=C/c3ccccc3)cc2)cc1", "experimental-readout": "GI50", "observed": "18.9 µM (inactive)"}
{"compound": "NC(=S)NNC(=O)/C(=C/c1ccc(/C=C(\\NC(=O)c2ccccc2)C(=O)NNC(N)=S)cc1)NC(=O)c1ccccc1", "experimental-readout": "GI50", "observed": "> 79.3 µM (inactive)"}
{"compound": "COS(=O)(=O)OCCC(NC(=O)OCc1ccccc1)C(=O)OCc1ccccc1 (configuration not stated)", "experimental-readout": "GI50", "observed": "> 100 µM (inactive)"}
{"compound": "O=C(CSc1nnc(-c2ccccn2)s1)N/N=C/c1ccccc1", "experimental-readout": "GI50", "observed": "> 100 µM (inactive)"}
{"compound": "COc1ccc(/C=C2\\N=C(SC)N(CN3CCCCC3)C2=O)cc1", "experimental-readout": "GI50", "observed": "> 100 µM (inactive)"}
{"compound": "CO[C@@H]1C[C@H]2[C@@H]3CC[C@H]([C@@H](C)CO)[C@@]3(C)CC[C@@H]2[C@@]2(C)CC[C@H]3C[C@]312", "experimental-readout": "GI50", "observed": "50.9 µM (inactive)"}
{"compound": "CC1(O)CCC2(C)C(=O)C1(C)CCC21OCCO1 (configuration not stated)", "experimental-readout": "GI50", "observed": "> 100 µM (inactive)"}
{"compound": "O=C(Cc1nc2ccc(C(=O)c3ccccc3)cc2nc1O)C(=O)Nc1nc2ccccc2[nH]1", "experimental-readout": "GI50", "observed": "93.5 µM (inactive)"}
{"compound": "Cn1c(=O)nc2n(-c3ccc(Cl)cc3)c3ccc(Cl)cc3nc-2c1=O", "experimental-readout": "GI50", "observed": "19.5 µM (inactive)"}
{"compound": "COC(=O)c1nn2ccc3ccccc3c2c1C(=O)OC", "experimental-readout": "GI50", "observed": "88.9 µM (inactive)"}
{"compound": "COc1ccc(CNc2cc(OC)cc(OC)c2)cc1", "experimental-readout": "GI50", "observed": "> 71.6 µM (inactive)"}
{"compound": "CC(C)(C)C1=CC(=C2C=Cc3cc(O)ccc3O2)C=C(C(C)(C)C)C1=O", "experimental-readout": "GI50", "observed": "1.59 µM (inactive)"}
{"compound": "Oc1ccc(Cc2cc(Cc3ccc(O)cc3)cc(Cc3ccc(O)cc3)c2)cc1", "experimental-readout": "GI50", "observed": "> 50 µM (inactive)"}
{"compound": "CSc1nc2c(c(N3CCOCC3)n1)C(O)n1c(nc3ccccc31)S2 (configuration not stated)", "experimental-readout": "GI50", "observed": "> 100 µM (inactive)"}
{"compound": "COC(=O)C(CC(=O)Nc1ccc(C)cc1)C(=O)C(=O)Nc1ccccc1C(C)C (configuration not stated)", "experimental-readout": "GI50", "observed": "> 100 µM (inactive)"}
{"compound": "CCCc1nnc2sc(COc3cc(Cl)c(OCc4nn5c(CCC)nnc5s4)cc3Cl)nn12", "experimental-readout": "GI50", "observed": "25.2 µM (inactive)"}
{"compound": "C=CCCCC1CCCNC1=O (configuration not stated)", "experimental-readout": "GI50", "observed": "> 100 µM (inactive)"}
{"compound": "CCCCNC(=S)Nc1nc(C(=O)NNC(=O)c2ccccc2)cs1", "experimental-readout": "GI50", "observed": "13.8 µM (inactive)"}
{"compound": "CC(=O)OC(C)(C)CCC(=O)[C@](C)(O)[C@H]1[C@H](O)C[C@@]2(C)[C@@H]3CCc4c(cc(OC5OC(CO)C(O)C(O)C5O)c(O)c4C)C3(C)C(=O)C[C@]12C (some centres not stated)", "experimental-readout": "GI50", "observed": "> 100 µM (inactive)"}
{"compound": "CCOC(=O)/C(C#N)=C/N(CC)/N=C/c1ccccc1", "experimental-readout": "GI50", "observed": "> 100 µM (inactive)"}
{"compound": "c1cc(-c2sc(-c3ccncc3)c(-c3ccncc3)c2-c2ccncc2)ccn1", "experimental-readout": "GI50", "observed": "18.2 µM (inactive)"}
{"compound": "Cc1cc(=O)oc2c(CN3CCCCC3)c(O)ccc12", "experimental-readout": "GI50", "observed": "> 100 µM (inactive)"}
{"compound": "FC(F)(F)c1ccc(/C=N/C23CC4CC(CC(C4)C2)C3)cc1", "experimental-readout": "GI50", "observed": "> 100 µM (inactive)"}
{"compound": "C[C@]12C=CC(=O)C=C1CC[C@H]1[C@@H]3C[C@@H](O)[C@](O)(C(=O)CO)[C@@]3(C)C[C@H](O)[C@@]12F", "experimental-readout": "GI50", "observed": "> 100 µM (inactive)"}
{"compound": "O=[N+]([O-])c1ccc(OCCNc2cccc3ccccc23)cc1", "experimental-readout": "GI50", "observed": "> 100 µM (inactive)"}
{"compound": "CC(CO)C1C[C@H](O)[C@@]2(C)CC(=O)C=C(CO)[C@@H]2C1 (some centres not stated)", "experimental-readout": "GI50", "observed": "> 100 µM (inactive)"}
{"compound": "O=C1N[C@H]2c3c(Cl)sc(Cl)c3C(=O)[C@H]2O1", "experimental-readout": "GI50", "observed": "3.55 µM (inactive)"}
{"compound": "CCOC(=O)c1nc2cc(C(F)(F)F)ccc2nc1Oc1ccc(C(=O)OC)cc1", "experimental-readout": "GI50", "observed": "> 100 µM (inactive)"}
{"compound": "N#C/C(c1nc2ccccc2[nH]1)=c1\\s/c(=C/c2ccccc2)c(=O)n1-c1ccccc1", "experimental-readout": "GI50", "observed": "2.9 µM (inactive)"}
{"compound": "COc1ccc(Oc2nc3cc(C(F)(F)F)ccc3nc2C(C)C)cc1", "experimental-readout": "GI50", "observed": "23.3 µM (inactive)"}
{"compound": "Cc1ccc(S(=O)(=O)OC[C@@H]2CO2)cc1", "experimental-readout": "GI50", "observed": "> 100 µM (inactive)"}
{"compound": "COC(=O)C(C)(C)NC(=O)C(C)(C)NC(=O)C(CC(=O)OC(C)(C)C)NC(=O)OC(C)(C)C (configuration not stated) (Boc-[ξD](OtBu)-[Aib]-[Aib]-OMe)", "experimental-readout": "GI50", "observed": "> 100 µM (inactive)"}
{"compound": "COc1ccc(/C(=N\\NC(=O)C(=O)NN)C(c2ccc(OC)cc2)C2(O)C(=O)Nc3ccccc32)cc1 (configuration not stated)", "experimental-readout": "GI50", "observed": "> 100 µM (inactive)"}
{"compound": "CC[C@H](C)c1occ2c(O)c(C(=O)O)c(=O)cc-2c1C", "experimental-readout": "GI50", "observed": "18.6 µM (inactive)"}
{"compound": "CC(=O)OCC1OC(n2c(-c3ccccc3)c(C(C)=O)c(-c3cccc4ccccc34)c(C#N)c2=S)C(OC(C)=O)C(OC(C)=O)C1OC(C)=O (configuration not stated)", "experimental-readout": "GI50", "observed": "> 100 µM (inactive)"}
{"compound": "C=CC(C)(C)n1cc(C2=C3OC(=O)C(c4cn(C(C)(C)C=C)c5ccccc45)=C3OC2=O)c2ccccc21", "experimental-readout": "GI50", "observed": "> 100 µM (inactive)"}
{"compound": "COC(=O)C1OC(O[C@H]2CC[C@]3(C)[C@H]4CC=C5[C@@H]6CC(C)(C)CC[C@]6(C(=O)OC6OCC(O)C(O)C6OC6OC(C)C(OC7OCC(OC8OCC(O)C(O)C8O)C(O)C7O)C(O)C6O)[C@H](O)C[C@@]5(C)[C@]4(C)CC[C@H]3C2(C)C)C(O)C(O)C1O (some centres not stated)", "experimental-readout": "GI50", "observed": "4.57 µM (inactive)"}
